- assay setup: siRNA; also: test system not given here
HELM strings list units from the 5' end as sugar, base in round brackets, then linkage (d deoxyribose, r ribose, m 2'-O-methyl, p phosphodiester). Strings are as the collection lists them, not checked against the first reports. ss, as = sense and antisense strand; [lna] = locked nucleic acid (LNA); [fl2r] = 2'-fluoro
property: target mRNA knockdown (%)
Use % as the unit, but write only the number.

RNA1{r(A)p.m(U)p.r(G)p.r(G)p.r(G)p.r(A)p.r(G)p.r(A)p.r(A)p.r(G)p.m(U)p.r(A)p.r(G)p.r(U)p.r(C)p.r(C)p.r(C)p.r(C)p.r(C)p.r(T)p.r(T)}|RNA2{r(G)p.r(G)p.r(G)p.r(G)p.r(G)p.r(A)p.r(C)p.m(U)p.r(A)p.r(C)p.r(U)p.r(U)p.r(C)p.r(U)p.r(C)p.r(C)p.m(C)p.r(A)p.r(U)p.r(T)p.r(T)}$$$RNA1{StrandType:ss}|RNA2{StrandType:as}$    82

Q: Form field: reported target mRNA knockdown of RNA1{m(U)p.r(C)p.m(C)p.r(U)p.m(A)p.r(G)p.m(C)p.r(U)p.m(G)p.r(U)p.m(C)p.r(U)p.m(U)p.r(G)p.m(U)p.r(C)p.m(C)p.r(C)p.m(U)p.r(T)p.r(T)}|RNA2{r(A)p.r(G)p.r(G)p.r(G)p.r(A)p.r(C)p.r(A)p.r(A)p.r(G)p.r(A)p.r(C)p.r(A)p.r(G)p.r(C)p.r(U)p.r(A)p.r(G)p.r(G)p.r(A)p.r(T)p.r(T)}$$$RNA1{StrandType:ss}|RNA2{StrandType:as}$
Result: 27

Q: Same again, this time with RNA1{m(G)p.r(C)p.m(G)p.m(A)p.m(G)p.r(C)p.m(A)p.m(G)p.m(A)p.m(G)p.m(A)p.m(A)p.r(U)p.r(C)p.r(U)p.m(A)p.r(C)p.r(C)p.r(U)p.r(T)p.r(T)}|RNA2{r(A)p.r(G)p.r(G)p.r(U)p.r(A)p.r(G)p.r(A)p.r(U)p.r(U)p.r(C)p.r(U)p.r(C)p.r(U)p.r(G)p.r(C)p.r(U)p.r(C)p.r(G)p.r(C)p.r(T)p.r(T)}$$$RNA1{StrandType:ss}|RNA2{StrandType:as}$
Result: 65

Q: Same again, this time with RNA1{[fl2r](A)p.r(G)p.[fl2r](C)p.r(C)p.[fl2r](C)p.r(A)p.[fl2r](G)p.r(A)p.[fl2r](U)p.r(A)p.[fl2r](G)p.r(C)p.[fl2r](U)p.r(C)p.[fl2r](U)p.r(U)p.[fl2r](C)p.r(A)p.[fl2r](G)p.r(T)p.r(T)}|RNA2{r(C)p.r(U)p.r(G)p.r(A)p.r(A)p.r(G)p.r(A)p.r(G)p.r(C)p.r(U)p.r(A)p.r(U)p.r(C)p.r(U)p.r(G)p.r(G)p.r(G)p.r(C)p.r(U)p.r(T)p.r(T)}$$$RNA1{StrandType:ss}|RNA2{StrandType:as}$
Result: 35

Q: Same again, this time with RNA1{[lna](G)p.r(C)p.r(U)p.r(G)p.r(A)p.r(C)p.r(C)p.r(C)p.r(U)p.r(G)p.r(A)p.r(A)p.r(G)p.r(U)p.r(U)p.r(C)p.r(A)p.r(U)p.r(C)p.[lna](T)p.[lna](T)}|RNA2{r(G)p.r(A)p.r(U)p.r(G)p.r(A)p.r(A)p.r(C)p.r(U)p.r(U)p.r(C)p.r(A)p.r(G)p.r(G)p.r(G)p.r(U)p.r(C)p.r(A)p.r(G)p.r(C)p.[lna](T)p.[lna](T)}$$$RNA1{StrandType:ss}|RNA2{StrandType:as}$
Result: 61
